Assay: in vitro
Conditions: human, hela cells, % viability
Can you tell me viability at 28.5 h, 10 µM for the items I'm about to list?
Give just the numeric value; % need not be written.

Value of measured viability at 28.5 h, 10 µM for the entry Cc1ccc(S(=O)(=O)NC(CC(=O)O)c2ccccc2)cc1 (stereo not shown) [CBK261307] : 105

Value of measured viability at 28.5 h, 10 µM for the entry CCCCOc1ccc(-c2nnn(C(C)C(=O)OCC)n2)cc1 (stereo not shown) [CBK068558] : 88.6

Value of measured viability at 28.5 h, 10 µM for the entry O=C(CN1CCC(O)(Cn2cnc3ccccc32)CC1)c1ccc(-c2ccccc2)cc1 [CBK286306] : 86.8

Value of measured viability at 28.5 h, 10 µM for the entry Cc1ccc(S(=O)(=O)N(C)CC(=O)NCc2nc(-c3ccccc3)no2)cc1 [CBK268524] : 93.4
